- test_description: Therapeutic index, ratio of CC50 for African green monkey Vero E6 cells to IC50 for DENV2 16681 infected in African green monkey Vero E6 cells
- Format: toxicity, Vero C1008
- condition_summary: read-out: Ratio CC50/IC50
Parameter: selectivity ratio. Scope: all listed entries.

Consider the worked cases shown below.
CC1(C)[C@@H](O[C@H]2O[C@H](C(=O)O)[C@@H](O)[C@H](O)[C@H]2O[C@@H]2O[C@H](C(=O)O)[C@@H](O)[C@H](O)[C@H]2O)CC[C@]2(C)[C@H]3C(=O)C=C4[C@@H]5C[C@@](C)(C(=O)O)CC[C@]5(C)CC[C@@]4(C)[C@]3(C)CC[C@@H]12    > 12.3
COC(=O)[C@H](CCSC)NC(=O)[C@H]1O[C@@H](O[C@H]2[C@@H](O[C@H]3CC[C@]4(C)[C@H]5C(=O)C=C6[C@@H]7C[C@@](C)(C(=O)N[C@@H](CCSC)C(=O)OC)CC[C@]7(C)CC[C@@]6(C)[C@]5(C)CC[C@H]4C3(C)C)O[C@H](C(=O)N[C@@H](CCSC)C(=O)OC)[C@@H](O)[C@@H]2O)[C@H](O)[C@@H](O)[C@@H]1O    > 22.2
CC1(C)[C@@H](O[C@H]2O[C@H](C(=O)N[C@@H](Cc3ccc(O)cc3)C(=O)O)[C@@H](O)[C@H](O)[C@H]2O[C@@H]2O[C@H](C(=O)N[C@@H](Cc3ccc(O)cc3)C(=O)O)[C@@H](O)[C@H](O)[C@H]2O)CC[C@]2(C)[C@H]3C(=O)C=C4[C@@H]5C[C@@](C)(C(=O)N[C@@H](Cc6ccc(O)cc6)C(=O)O)CC[C@]5(C)CC[C@@]4(C)[C@]3(C)CC[C@@H]12    > 46.5
CC[C@H](C)[C@H](NC(=O)[C@H]1O[C@@H](O[C@H]2[C@@H](O[C@H]3CC[C@]4(C)[C@H]5C(=O)C=C6[C@@H]7C[C@@](C)(C(=O)N[C@H](C(=O)O)[C@@H](C)CC)CC[C@]7(C)CC[C@@]6(C)[C@]5(C)CC[C@H]4C3(C)C)O[C@H](C(=O)N[C@H](C(=O)O)[C@@H](C)CC)[C@@H](O)[C@@H]2O)[C@H](O)[C@@H](O)[C@@H]1O)C(=O)O    > 76.3

input: # lookup: selectivity ratio of COC(=O)CCCCCCCCCCNC(=O)[C@H]1O[C@@H](O[C@H]2[C@@H](O[C@H]3CC[C@]4(C)[C@H]5C(=O)C=C6[C@@H]7C[C@@](C)(C(=O)O)CC[C@]7(C)CC[C@@]6(C)[C@]5(C)CC[C@H]4C3(C)C)O[C@H](C(=O)NCCCCCCCCCCC(=O)OC)[C@@H](O)[C@@H]2O)[C@H](O)[C@@H](O)[C@@H]1O
output: > 80

----------
- Test system: dengue virus type 2
- test_description: Antiviral activity against DENV2 16681 infected in African green monkey Vero E6 cells assessed as inhibitory rate of NS4B positive cells measured after 96 hrs incubation by DAPI staining based immunofluorescence method
- Format: functional, organism-based
- condition_summary: Dengue virus, 16681, Vero C1008, 96 h
quantity: pIC50
pIC50 (log units): -log10 of the concentration in mol/L.

COC(=O)CCCCCCCCCCNC(=O)[C@H]1O[C@@H](O[C@H]2[C@@H](O[C@H]3CC[C@]4(C)[C@H]5C(=O)C=C6[C@@H]7C[C@@](C)(C(=O)O)CC[C@]7(C)CC[C@@]6(C)[C@]5(C)CC[C@H]4C3(C)C)O[C@H](C(=O)NCCCCCCCCCCC(=O)OC)[C@@H](O)[C@@H]2O)[C@H](O)[C@@H](O)[C@@H]1O    5.92

Pending compound:
input: Short answer please: pIC50, dengue virus type 2, entry CC1(C)[C@@H](O[C@H]2O[C@H](C(=O)N[C@@H](Cc3ccc(O)cc3)C(=O)O)[C@@H](O)[C@H](O)[C@H]2O[C@@H]2O[C@H](C(=O)N[C@@H](Cc3ccc(O)cc3)C(=O)O)[C@@H](O)[C@H](O)[C@H]2O)CC[C@]2(C)[C@H]3C(=O)C=C4[C@@H]5C[C@@](C)(C(=O)N[C@@H](Cc6ccc(O)cc6)C(=O)O)CC[C@]5(C)CC[C@@]4(C)[C@]3(C)CC[C@@H]12
output: 5.66
